Attribution: paper PMC12159506

B1: SmBiT-C-CaSR-WT [not stated] / LgBiT-N-AP2σ-WT [not stated] (parent)
chain 1: not shown
chain 2: YGPDQRAQKKGDIILGGLFPIHFGVAAKDQDLKSRPESVECIRYNFRGFRWLQAMIFAIEEINSSPALLPNLTLGYRIFDTCNTVSKALEATLSFVAQNKIDSLNLDEFCNCSEHIPSTIAVVGATGSGVSTAVANLLGLFYIPQVSYASSSRLLSNKNQFKSFLRTIPNDEHQATAMADIIEYFRWNWVGTIAADDDYGRPGIEKFREEAEERDICIDFSELISQYSDEEEIQHVVEVIQNSTAKVIVVFSSGPDLEPLIKEIVRRNITGKIWLASEAWASSSLIAMPQYFHVVGGTIGFALKAGQIPGFREFLKKVHPRKSVHNGFAKEFWEETFNCHLQEGAKGPLPVDTFLRGHEESGDRFSNSSTAFRPLCTGDENISSVETPYIDYTHLRISYNVYLAVYSIAHALQDIYTCLPGRGLFTNGSCADIKKVEAWQVLKHLRHLNFTNNMGEQVTFDECGDLVGNYSIINWHLSPEDGSIVFKEVGYYNVYAKKGERLFINEEKILWSGFSREVPFSNCSRDCLAGTRKGIIEGEPTCCFECVECPDGEYSDETDASACNKCPDDFWSNENHTSCIAKEIEFLSWTEPFGIALTLFAVLGIFLTAFVLGVFIKFRNTPIVKATNRELSYLLLFSLLCCFSSSLFFIGEPQDWTCRLRQPAFGISFVLCISCILVKTNRVLLVFEAKIPTSFHRKWWGLNLQFLLVFLCTFMQIVICVIWLYTAPPSSYRNQELEDEIIFITCHEGSLMALGFLIGYTCLLAAICFFFAFKSRKLPENFNEAKFITFSMLIFFIVWISFIPAYASTYGKFVSAVEVIAILAASFGLLACIFFNKIYIILFKPSRNTIEEVRCSTAAHAFKVAARATLRRSNVSRKRSSSLGGSTGSTPSSSISSKSNSEDPFPQPERQKQQQPLALTQQEQQQQPLTLPQQQRSQQQPRCKQKVIFGSGTVTFSLSFDEPQKNAMAHRNSTHQNSLEAQKSSDTLTRHEPLLPLQCGETDLDLTVQETGLQGPVGGDQRPEVEDPEELSPALVVSSSQSFVISGGGSTVTENVVNS

variants of: B1; assay: NanoBiT split-luciferase; settings: with LgBiT-N-AP2σ-WT; N = 10; read off a plot
Catalogue of response values

{"mutations": "chain 2 R990A", "response": 3.8}
{"mutations": "chain 2 H991A", "response": 3}
{"mutations": "chain 2 P993A", "response": 4.5}
{"mutations": "chain 2 L994A L995A", "response": 2.1}
